# system-tested: HIS-tagged IDO1 protein (Homo sapiens (Human))
# Sequence (P14902 whole entry): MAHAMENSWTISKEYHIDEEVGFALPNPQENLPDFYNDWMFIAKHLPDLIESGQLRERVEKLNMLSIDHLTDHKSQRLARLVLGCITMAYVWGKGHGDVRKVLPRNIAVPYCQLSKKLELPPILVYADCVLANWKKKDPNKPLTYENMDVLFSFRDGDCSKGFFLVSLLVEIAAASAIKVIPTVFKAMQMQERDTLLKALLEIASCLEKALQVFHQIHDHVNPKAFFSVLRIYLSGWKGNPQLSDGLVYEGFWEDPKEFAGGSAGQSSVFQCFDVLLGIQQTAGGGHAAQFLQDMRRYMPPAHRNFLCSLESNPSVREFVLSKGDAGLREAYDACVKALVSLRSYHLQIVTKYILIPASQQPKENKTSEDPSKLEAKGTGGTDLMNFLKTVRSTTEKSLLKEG
# test-name: IDO1 Enzyme Assay
# run-parameters: recombinant IDO1 40 nM, tryptophan substrate, fluorescence readout
# Method: Biological Assays IDO1 Enzyme Assay Compounds to be tested were serially diluted in ten 3-fold steps in DMSO starting from 10 mM DMSO stocks. […] HIS-tagged IDO1 protein was recombinantly expressed in Escherichia coli using ZYP5052 autoinduction media supplemented with 500 μM delta aminolevulinic acid for 48 hours at 16 degrees Celsius. […] The resulting fluorescence was measured in an Envision plate reader (Perkin Elmer) with a 400/25 nm excitation filter and an 510/20 nm emission filter. […]
pIC50: −log10 of the molar value.
result-type: pIC50

// known answers, use as guide
compound="C[C@@H](CO)NC(=O)COc1nonc1/C(=N/O)N[C@H]1Cc2ccc(F)cc21 [Example 7]" result_type=pIC50 result_value=7.14
compound="C[C@@H](O)C(=O)N1CC(Oc2nonc2/C(=N/O)N[C@H]2Cc3ccc(F)cc32)C1 [Example 61]" result_type=pIC50 result_value=7.05
compound="CC(=O)N[C@H]1C[C@H](Oc2nonc2/C(=N/O)N[C@H]2Cc3ccc(F)cc32)C1 [Example 37]" result_type=pIC50 result_value=7.08

1: NC(=O)NCCCOc1nonc1/C(=N/O)N[C@H]1Cc2ccc(F)cc21 [Example 18]
2: COC(=O)NCCOc1nonc1/C(=N/O)N[C@H]1Cc2ccc(F)cc21 [Example 41]
Data request: Please state the entry with greater pIC50 among 1 and 2 . Pick one and reply with its label.
Data returned: 1

---

# system-tested: IDO1 in Hela cells stimulated with IFNγ (Homo sapiens (Human))
# Sequence (P14902 whole entry): as above
# test-name: IDO1 Cellular Assay in Hela Cells Stimulated with IFNγ
# run-parameters: IFNγ 100 ng/mL, about 48 hours, fluorescence readout, read-out: IDO1 HELA Cell Assay, IC50
pIC50: −log10 of the molar value.
result-type: pIC50

Reference set, count: 6
compound="C[C@@H](O)C(=O)N1CC(Oc2nonc2/C(=N/O)N[C@H]2Cc3ccc(F)cc32)C1 [Example 61]" system_tested="IDO1 in Hela cells stimulated with IFNγ (Homo sapiens (Human))" result_value=7.00
compound="NS(=O)(=O)CCCOc1nonc1/C(=N/O)N[C@H]1Cc2ccc(F)cc21 [Example 29]" system_tested="IDO1 in Hela cells stimulated with IFNγ (Homo sapiens (Human))" result_value=6.83
compound="O=C(CO)N1CC(Oc2nonc2/C(=N/O)N[C@H]2Cc3ccc(F)cc32)C1 [Example 2]" system_tested="IDO1 in Hela cells stimulated with IFNγ (Homo sapiens (Human))" result_value=7.03
compound="O=C(CO)N[C@H]1C[C@@H](Oc2nonc2/C(=N/O)N[C@H]2Cc3ccc(F)cc32)C1 [Example 38]" system_tested="IDO1 in Hela cells stimulated with IFNγ (Homo sapiens (Human))" result_value=7.13
compound="O=C(COc1nonc1/C(=N/O)N[C@H]1Cc2ccc(F)cc21)N1CC[C@@H](O)C1 [Example 44]" system_tested="IDO1 in Hela cells stimulated with IFNγ (Homo sapiens (Human))" result_value=5.88
compound="O=C(CO)N1CC[C@H]1COc1nonc1/C(=N/O)N[C@H]1Cc2ccc(F)cc21 [Example 54]" system_tested="IDO1 in Hela cells stimulated with IFNγ (Homo sapiens (Human))" result_value=5.87

I: NS(=O)(=O)NCCOc1nonc1/C(=N/O)N[C@H]1Cc2ccc(F)cc21 [Example 1]
II: CC(=O)N[C@H](CO)COc1nonc1/C(=N/O)N[C@H]1Cc2ccc(F)cc21 [Example 51]
III: O=C(CO)N1CCC(Oc2nonc2/C(=N/O)N[C@H]2Cc3ccc(F)cc32)CC1 [Example 50]
Data request: Let's sort these by pIC50, smallest first. Go ahead? Answer by naming the labels in the order asked.
Data returned: II, III, I
